Target: Cereblon/Casein kinase I alpha (Homo sapiens) (UniProt P48729+Q96SW2)
Sequence (P48729 2-337 limits assumed): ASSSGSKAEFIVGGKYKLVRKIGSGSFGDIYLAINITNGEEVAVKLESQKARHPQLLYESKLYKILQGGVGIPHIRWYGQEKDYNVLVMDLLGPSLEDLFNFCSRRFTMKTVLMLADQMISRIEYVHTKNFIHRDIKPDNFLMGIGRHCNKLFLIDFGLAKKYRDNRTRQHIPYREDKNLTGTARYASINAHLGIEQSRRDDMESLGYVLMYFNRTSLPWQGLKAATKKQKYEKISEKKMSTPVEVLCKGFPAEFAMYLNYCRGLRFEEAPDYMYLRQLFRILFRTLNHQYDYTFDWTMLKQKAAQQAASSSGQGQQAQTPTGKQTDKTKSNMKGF
Sequence (Q96SW2 whole entry partner): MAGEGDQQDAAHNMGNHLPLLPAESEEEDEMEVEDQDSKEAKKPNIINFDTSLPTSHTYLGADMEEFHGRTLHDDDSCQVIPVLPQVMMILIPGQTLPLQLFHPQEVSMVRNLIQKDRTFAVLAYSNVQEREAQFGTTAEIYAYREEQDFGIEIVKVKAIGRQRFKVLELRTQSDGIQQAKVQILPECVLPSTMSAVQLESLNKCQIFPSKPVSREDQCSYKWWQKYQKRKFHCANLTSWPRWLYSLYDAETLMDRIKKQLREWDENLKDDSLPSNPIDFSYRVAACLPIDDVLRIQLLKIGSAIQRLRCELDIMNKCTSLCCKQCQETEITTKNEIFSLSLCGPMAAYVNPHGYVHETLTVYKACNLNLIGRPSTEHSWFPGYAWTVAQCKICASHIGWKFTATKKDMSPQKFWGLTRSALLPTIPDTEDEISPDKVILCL
Experiment: Protac activity at CRBN/CK1alpha in human MOLT-4 cells assessed as induction of CK1alpha degradation at 1 microM measured after 4 hrs by Immunoblotting analysis
Assay type: cell-based
quantity.kind: Activity

Q: Fill blank: measured Activity of the compound COc1c(-c2cn(C3CCC(=O)NC3=O)nn2)csc1C(=O)N1CCCC1 (centres undefined) is ____.
Ans: 70%

Q: Note, next up: COc1c(-c2cn(C3CCC(=O)NC3=O)nn2)csc1C(=O)NC1CCCC1 (centres undefined)
Ans: 70%
